Origin of the recorded values: the supplement of paper PMC13380429

Test system: U2OS
ASSAY_COMMENT: cell viability relative to DMSO; higher = less toxic
CONDITION_DESCRIPTION: 72 h; 100 nM
ENDPOINT_LABEL: cell viability

- MOLECULE: "COc1ccc(C(=O)Nc2sc3c(c2C(N)=O)CCCC3)cc1OC"
  TEST_RESULT: "102%"
- MOLECULE: "NC(=O)c1cccc(N)c1 [3-amino-benzamide]"
  TEST_RESULT: "98.3%"
- MOLECULE: "Cc1c(C)c2c(c(C)c1O)CCC(C)(C(=O)O)O2 (stereo not given)"
  TEST_RESULT: "105%"
- MOLECULE: "CN(C)CCc1c[nH]c2ccc(Cn3cncn3)cc12"
  TEST_RESULT: "96.5%"
- MOLECULE: "O=C(Nc1ccc(C(O)(C(F)(F)F)C(F)(F)F)cc1)c1ccc(C(F)(F)F)cc1"
  TEST_RESULT: "102%"
